# assay system: 5-hydroxytryptamine receptor 4 (Rattus norvegicus, UniProt Q62758)
# Sequence (Q62758 whole entry): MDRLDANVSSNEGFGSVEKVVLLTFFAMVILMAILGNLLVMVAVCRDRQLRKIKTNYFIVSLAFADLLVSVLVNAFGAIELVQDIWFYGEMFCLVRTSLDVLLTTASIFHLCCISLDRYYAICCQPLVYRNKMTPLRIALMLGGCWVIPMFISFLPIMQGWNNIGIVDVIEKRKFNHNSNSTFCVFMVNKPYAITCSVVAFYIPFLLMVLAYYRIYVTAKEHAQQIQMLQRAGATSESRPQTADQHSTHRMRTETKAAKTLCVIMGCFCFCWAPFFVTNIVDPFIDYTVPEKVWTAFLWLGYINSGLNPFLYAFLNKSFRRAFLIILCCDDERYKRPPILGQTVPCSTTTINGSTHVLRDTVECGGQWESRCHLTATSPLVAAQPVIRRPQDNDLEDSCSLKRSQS
# experiment summary: Agonism at 5HT4 receptor in rat tunica muscularis mucosa
Would you kindly list pEC50 for each of these compounds?
Numbers only, as −log10 of the molar value.

Below, 6 compounds whose answers are already recorded.
compound	observed result
COc1cc(N)c(Cl)cc1C(=O)NC[C@H]1CCN2CCC[C@H]12	6.49
COc1cc(N)c(Cl)cc1C(=O)NC[C@@H]1CCN2CCC[C@@H]12	7.78
CC(C)n1c(=O)n(C(=O)NC[C@@H]2CCN3CCC[C@@H]23)c2ccccc21 (relative stereo)	6.43
COc1cc(N)c(Cl)cc1C(=O)OC[C@@H]1CCN2CCC[C@@H]12	8.82
CCOc1cc(N)c(Cl)cc1C(=O)NC[C@@H]1CCN2CCC[C@@H]12	6.71
COc1cc(N)c(Cl)cc1C(=O)NC[C@@H]1CC[N@@+]2(C)CCC[C@@H]12	6.89

API: the following record is the query input.
Q: Supply recorded pEC50 for COc1cc(N)c(Cl)cc1C(=O)N[C@H]1CCN2CCC[C@@H]1C2 here.
Ans: 7.01
